target: E. coli DNA gyrase (Escherichia coli); experiment: E. coli gyrase DNA cleavage assay; format: biochemical; design: key: + strong inhibition; − weak inhibition in comparison to compound 16; settings: qualitative DNA cleavage assay at 1 μM and 10 μM, in comparison to compound 16
measured.property: Gyrase inhibition strong+ / weak −

Consider the worked cases shown below.
compound | assayed.target | value.measured
COc1c(NC(=O)c2ccc(NC(=O)c3ccc(NC(=O)[C@H](Cc4c[nH]nn4)NC(=O)c4ccc(NC(=O)c5cc(=O)c6cc(F)ccc6o5)cc4)cn3)c(OC)c2O)ccc(C(=O)O)c1O [compound 20] | E. coli DNA gyrase (Escherichia coli) | +
COc1c(NC(=O)c2ccc(NC(=O)c3ccc(NC(=O)[C@H](Cc4c[nH]nn4)NC(=O)c4ccc(NC(=O)c5ccc6nc[nH]c6c5)cc4)cn3)c(OC)c2O)ccc(C(=O)O)c1O [compound 23] | E. coli DNA gyrase (Escherichia coli) | +
COc1c(NC(=O)c2ccc(NC(=O)c3ccc(NC(=O)[C@H](Cc4c[nH]nn4)NC(=O)c4ccc(NC(=O)c5ccc6nccnc6c5)cc4)cn3)c(OC)c2O)ccc(C(=O)O)c1O [compound 15] | E. coli DNA gyrase (Escherichia coli) | +
COc1c(NC(=O)c2ccc(NC(=O)c3ccc(NC(=O)[C@H](Cc4c[nH]nn4)NC(=O)c4ccc(NC(=O)c5cc6ccccc6cn5)cc4)cn3)c(OC)c2O)ccc(C(=O)O)c1O [compound 12] | E. coli DNA gyrase (Escherichia coli) | +
COc1c(NC(=O)c2ccc(NC(=O)c3ccc(NC(=O)[C@H](Cc4c[nH]nn4)NC(=O)c4ccc(NC(=O)c5ccc6ncccc6c5)cc4)cn3)c(OC)c2O)ccc(C(=O)O)c1O [compound 14] | E. coli DNA gyrase (Escherichia coli) | +
COc1c(NC(=O)c2ccc(NC(=O)c3ccc(NC(=O)[C@H](Cc4c[nH]nn4)NC(=O)c4ccc(NC(=O)c5ccc6nn[nH]c6c5)cc4)cn3)c(OC)c2O)ccc(C(=O)O)c1O [compound 24] | E. coli DNA gyrase (Escherichia coli) | +
COc1c(NC(=O)c2ccc(NC(=O)c3ccc(NC(=O)[C@H](Cc4c[nH]nn4)NC(=O)c4ccc(NC(=O)c5ccc([N+](=O)[O-])cn5)cc4)cn3)c(OC)c2O)ccc(C(=O)O)c1O [compound 8] | E. coli DNA gyrase (Escherichia coli) | +
COc1c(NC(=O)c2ccc(NC(=O)c3ccc(NC(=O)[C@H](Cc4c[nH]nn4)NC(=O)c4ccc(NC(=O)c5ccc(C(F)(F)F)cc5)cc4)cn3)c(OC)c2O)ccc(C(=O)O)c1O [compound 5] | E. coli DNA gyrase (Escherichia coli) | −
COc1ccc(C(=O)Nc2ccc(C(=O)N[C@@H](Cc3c[nH]nn3)C(=O)Nc3ccc(C(=O)Nc4ccc(C(=O)Nc5ccc(C(=O)O)c(O)c5OC)c(O)c4OC)nc3)cc2)nc1 [compound 6] | E. coli DNA gyrase (Escherichia coli) | +
CCn1cc(C(=O)Nc2ccc(C(=O)N[C@@H](Cc3c[nH]nn3)C(=O)Nc3ccc(C(=O)Nc4ccc(C(=O)Nc5ccc(C(=O)O)c(O)c5OC)c(O)c4OC)nc3)cc2)c(=O)c2ccc(C)nc21 [compound 18] | E. coli DNA gyrase (Escherichia coli) | −

Please look at the items below and tell me Gyrase inhibition strong+ / weak − for each one, in order.
1. COc1c(NC(=O)c2ccc(NC(=O)c3ccc(NC(=O)[C@H](Cc4c[nH]nn4)NC(=O)c4ccc(NC(=O)c5ccc6ncsc6c5)cc4)cn3)c(OC)c2O)ccc(C(=O)O)c1O [compound 22]
2. CCn1cc(C(=O)Nc2ccc(C(=O)N[C@@H](Cc3c[nH]nn3)C(=O)Nc3ccc(C(=O)Nc4ccc(C(=O)Nc5ccc(C(=O)O)c(O)c5OC)c(O)c4OC)nc3)cc2)c(=O)c2cc3c(cc21)OCO3 [compound 19]

-- reply
1: +; 2: −

* * *

System: E. coli BW25113
Test: MIC determination (broth microdilution)
Assay type: cell-based
Conditions: Escherichia coli, BW25113; read-out: MIC E. coli BW25113
Protocol: After completing the syntheses, the antibacterial activity of A‐variations 4–24 was assessed by determination of MIC values against a basic set of gram‐negative and gram‐positive bacteria (Table 1). […] Minimal inhibitory concentration (MIC) against selected bacterial strains values were determined according to the ninth edition of the Approved Standard M07-A9.[1] […] Both microdilution trays and agar plates were incubated at 30−37°C for 16 h and subsequently analyzed for growth inhibition by naked eye. […]
measured.property: MIC (µg/mL)
Give bare numbers, in µg/mL.

Consider the worked cases shown below.
molecule | MIC / µg/mL
CCn1cc(C(=O)Nc2ccc(C(=O)N[C@@H](Cc3c[nH]nn3)C(=O)Nc3ccc(C(=O)Nc4ccc(C(=O)Nc5ccc(C(=O)O)c(O)c5OC)c(O)c4OC)nc3)cc2)c(=O)c2ccc(C)nc21 [compound 18] | 0.063
COc1c(NC(=O)c2ccc(NC(=O)c3ccc(NC(=O)[C@H](Cc4c[nH]nn4)NC(=O)c4ccc(NC(=O)c5ccc(C(F)(F)F)cc5)cc4)cn3)c(OC)c2O)ccc(C(=O)O)c1O [compound 5] | 0.063
COc1c(NC(=O)c2ccc(NC(=O)c3ccc(NC(=O)[C@H](Cc4c[nH]nn4)NC(=O)c4ccc(NC(=O)c5ccc([N+](=O)[O-])cn5)cc4)cn3)c(OC)c2O)ccc(C(=O)O)c1O [compound 8] | 0.125

For the next question, use this molecule.
-- ask Using known records, supply MIC for COc1c(NC(=O)c2ccc(NC(=O)c3ccc(NC(=O)[C@H](Cc4cn[nH]n4)NC(=O)c4ccc(NC(=O)/C(C)=C/c5ccc(O)cc5)cc4)cn3)c(OC)c2O)ccc(C(=O)O)c1O [compound 3, reference compound]
-- reply 0.016

* * *

Data export: MIC values recorded with Micrococcus luteus DSM 1790.
One number for each entry, in µg/mL.

Consider the worked cases shown below.
smiles.text | value.measured
COc1c(NC(=O)c2ccc(NC(=O)c3ccc(NC(=O)[C@H](Cc4c[nH]nn4)NC(=O)c4ccc(NC(=O)c5ccc6nccnc6c5)cc4)cn3)c(OC)c2O)ccc(C(=O)O)c1O | 0.25
COc1c(NC(=O)c2ccc(NC(=O)c3ccc(NC(=O)[C@H](Cc4c[nH]nn4)NC(=O)c4ccc(NC(=O)[C@@H](C)Oc5ccc(O)cc5)cc4)cn3)c(OC)c2O)ccc(C(=O)O)c1O | 2
COc1c(NC(=O)c2ccc(NC(=O)c3ccc(NC(=O)[C@H](Cc4c[nH]nn4)NC(=O)c4ccc(NC(=O)c5ccc([N+](=O)[O-])cn5)cc4)cn3)c(OC)c2O)ccc(C(=O)O)c1O | 0.063
COc1c(NC(=O)c2ccc(NC(=O)c3ccc(NC(=O)[C@H](Cc4c[nH]nn4)NC(=O)c4ccc(NC(=O)c5cc6cc(O)ccc6[nH]5)cc4)cn3)c(OC)c2O)ccc(C(=O)O)c1O | 1
COc1c(NC(=O)c2ccc(NC(=O)c3ccc(NC(=O)[C@H](Cc4c[nH]nn4)NC(=O)c4ccc(NC(=O)c5ccc(C(F)(F)F)cc5)cc4)cn3)c(OC)c2O)ccc(C(=O)O)c1O | 0.5

Please look at the items below and tell me MIC for each one, in order.
1. COc1c(NC(=O)c2ccc(NC(=O)c3ccc(NC(=O)[C@H](Cc4c[nH]nn4)NC(=O)c4ccc(NC(=O)c5cc(=O)c6cc(F)ccc6o5)cc4)cn3)c(OC)c2O)ccc(C(=O)O)c1O
2. COc1ccc(C(=O)Nc2ccc(C(=O)N[C@@H](Cc3c[nH]nn3)C(=O)Nc3ccc(C(=O)Nc4ccc(C(=O)Nc5ccc(C(=O)O)c(O)c5OC)c(O)c4OC)nc3)cc2)nc1
3. COc1c(NC(=O)c2ccc(NC(=O)c3ccc(NC(=O)[C@H](Cc4c[nH]nn4)NC(=O)c4ccc(NC(=O)c5ccc6nn[nH]c6c5)cc4)cn3)c(OC)c2O)ccc(C(=O)O)c1O

-- reply
1: 0.063; 2: 0.125; 3: 0.5

-- ask Using known records, supply MIC for COc1c(NC(=O)c2ccc(NC(=O)c3ccc(NC(=O)[C@H](Cc4c[nH]nn4)NC(=O)c4ccc(NC(=O)c5cc6ccccc6cn5)cc4)cn3)c(OC)c2O)ccc(C(=O)O)c1O
-- reply 0.063

* * *

biological target: E. coli DNA gyrase (Escherichia coli, UniProt P0AES4); experiment: E. coli gyrase DNA cleavage assay; type: biochemical; settings: E. coli gyrase DNA cleavage; read-out: CC50 (concentration at half-maximum cleavage)
For each entry below, report its CC50 value.
Give bare numbers, in nM.

Consider the worked cases shown below.
compound | CC50, nM
COc1c(NC(=O)c2ccc(NC(=O)c3ccc(NC(=O)[C@H](Cc4c[nH]nn4)NC(=O)c4ccc(NC(=O)c5ccc6cc(O)ccc6c5)cc4)cn3)c(OC)c2O)ccc(C(=O)O)c1O [compound 10] | 78
COc1c(NC(=O)c2ccc(NC(=O)c3ccc(NC(=O)[C@H](Cc4c[nH]nn4)NC(=O)c4ccc(NC(=O)c5ccc6ncsc6c5)cc4)cn3)c(OC)c2O)ccc(C(=O)O)c1O [compound 22] | 43
COc1c(NC(=O)c2ccc(NC(=O)c3ccc(NC(=O)[C@H](Cc4cn[nH]n4)NC(=O)c4ccc(NC(=O)/C(C)=C/c5ccc(O)cc5)cc4)cn3)c(OC)c2O)ccc(C(=O)O)c1O [compound 3, reference compound] | 66
COc1c(NC(=O)c2ccc(NC(=O)c3ccc(NC(=O)[C@H](Cc4c[nH]nn4)NC(=O)c4ccc(NC(=O)c5ccc6ccccc6n5)cc4)cn3)c(OC)c2O)ccc(C(=O)O)c1O [compound 11] | 18

For the next question, use this compound.
-- ask Using known records, supply CC50 for COc1c(NC(=O)c2ccc(NC(=O)c3ccc(NC(=O)[C@H](Cc4c[nH]nn4)NC(=O)c4ccc(NC(=O)c5ccc(C#N)cc5)cc4)cn3)c(OC)c2O)ccc(C(=O)O)c1O [compound 4]
-- reply 12

This collection of values is drawn from paper PMC11979685.
